Listing of pIC50 toward Substance-P receptor (Homo sapiens), each taken from a published source.
pIC50: −log10 of the molar value.
Label Condition met when pIC50 is at or above 9; anything below gets Condition not met.

compound: Fc1ccc(-c2noc(C3CCN(c4cnc5ccc(Cl)cc5c4)CC3)n2)c(Cl)c1
groupLabel: Condition not met
//
compound: Cc1cc(C)cc(/C(F)=C2\CCC(NC(=O)c3ccnc4ccccc34)CC2Cc2ccccc2)c1 (racemic)
groupLabel: Condition not met
//
compound: CN(CC(N)=O)[C@@H]1CC[C@H](OCc2cc(C(F)(F)F)cc(C(F)(F)F)c2)[C@H]1c1ccccc1 (racemic)
groupLabel: Condition not met
//
compound: CN(Cc1n[nH]c(=O)[nH]1)C[C@@H]1CC[C@H](OCc2cc(C(F)(F)F)cc(C(F)(F)F)c2)[C@H]1c1ccccc1 (racemic)
groupLabel: Condition not met
//
compound: COc1ccc(OC(F)(F)F)cc1CN[C@H]1CCN(C(C)=O)C[C@H]1c1ccccc1 (racemic)
groupLabel: Condition met
//
compound: COc1ccc(-n2nnnc2C(F)(F)F)cc1CN[C@@H]1CCN(C(=O)CNC(C)=O)C[C@@H]1c1ccccc1
groupLabel: Condition not met
//
compound: COc1ccc(COC(=O)[C@H](Cc2c[nH]c3ccccc23)NC(=O)c2ccccc2)cc1
groupLabel: Condition not met
//
compound: O=C(O)[C@@H]1CC[C@H](OCc2cc(C(F)(F)F)cc(C(F)(F)F)c2)[C@H]1c1ccccc1 (racemic)
groupLabel: Condition not met
//
compound: CN[C@H]1CC[C@H](OCc2cc(C(F)(F)F)cc(C(F)(F)F)c2)[C@@H]1c1ccccc1 (racemic)
groupLabel: Condition not met
//
compound: CC(C)C1CCN(C2CCN(C(CN(C)C(=O)Cc3cc(C(F)(F)F)cc(C(F)(F)F)c3)c3ccc(Cl)c(Cl)c3)CC2)CC1 (stereo unspecified)
groupLabel: Condition not met
//
compound: C[C@@H](O[C@@H]1CN(C2=CC(=O)OC2)C[C@H]1c1ccc(F)cc1)c1cc(C(F)(F)F)cc(C(F)(F)F)c1
groupLabel: Condition met
//
compound: COCCN(C)C1CCC(COCc2cc(C(F)(F)F)cc(C(F)(F)F)c2)(c2ccccc2)C1 (mixture of isomers)
groupLabel: Condition not met
//
compound: C[C@@H](O[C@@H]1CN(C(=O)C(C)(C)C)C[C@H]1c1ccccc1)c1cc(C(F)(F)F)cc(C(F)(F)F)c1
groupLabel: Condition met
//
compound: O=C(Cc1cc(C(F)(F)F)cc(C(F)(F)F)c1)NCC(c1cccc(F)c1)N1CCC(N2CCCCC2)CC1 (stereo unspecified)
groupLabel: Condition not met
//
compound: CC(=O)N1C[C@@H](O[C@H](C)c2cc(C(F)(F)F)cc(C(F)(F)F)c2)[C@H](c2ccc(F)cc2)C1
groupLabel: Condition met
//
compound: NC(=O)CNC[C@@H]1CC[C@H](OCc2cc(C(F)(F)F)cc(C(F)(F)F)c2)[C@H]1c1ccccc1 (racemic)
groupLabel: Condition not met
//
compound: CN(Cc1n[nH]c(=O)[nH]1)C[C@H]1CC[C@H](OCc2cc(C(F)(F)F)cc(C(F)(F)F)c2)[C@@H]1c1ccccc1 (racemic)
groupLabel: Condition not met
//
compound: Cc1cc(C)cc(/C(F)=C2/CC[C@@H](NC(=O)c3ccnc4ccccc34)C[C@@H]2Cc2ccccc2)c1
groupLabel: Condition not met
//
compound: CCN1CC[C@H](NCc2cc(-n3nnnc3C(F)(F)F)ccc2OC)[C@H](c2ccccc2)C1 (racemic)
groupLabel: Condition not met
//
compound: COc1ccc(C(CN(C)C(=O)Cc2cc(C(F)(F)F)cc(C(F)(F)F)c2)N2CCC(N3CCCCC3)CC2)c(OC)c1OC (stereo unspecified)
groupLabel: Condition not met
//
compound: FC(F)(F)c1cc(CO[C@H]2CC[C@@H](CN3CCCCC3)[C@@H]2c2ccccc2)cc(C(F)(F)F)c1 (racemic)
groupLabel: Condition not met
//
compound: NC(=O)CN[C@H](COCc1cc(C(F)(F)F)cc(C(F)(F)F)c1)c1ccccc1
groupLabel: Condition not met
//
compound: CC(=O)N1C[C@@H](O[C@H](C)c2cc(C(F)(F)F)cc(C(F)(F)F)c2)[C@H](c2ccccc2)C1
groupLabel: Condition met
//
compound: COc1ccccc1C(CNC(=O)Cc1cc(C(F)(F)F)cc(C(F)(F)F)c1)N1CCC(N2CCCCC2)CC1 (stereo unspecified)
groupLabel: Condition not met
//
compound: N[C@H](COCc1cc(C(F)(F)F)cc(C(F)(F)F)c1)c1ccccc1
groupLabel: Condition not met
//
compound: Cc1cc(C)cc(C(=O)N2C3CC(NCc4ccnc5ccccc45)CC2C(c2ccccc2)C3)c1 (racemic; form 2)
groupLabel: Condition not met

---

Endpoint summary: log10 of IC50, system: Substance-P receptor (Homo sapiens, UniProt P25103), multiple sources combined.
Sequence (P25103 whole entry): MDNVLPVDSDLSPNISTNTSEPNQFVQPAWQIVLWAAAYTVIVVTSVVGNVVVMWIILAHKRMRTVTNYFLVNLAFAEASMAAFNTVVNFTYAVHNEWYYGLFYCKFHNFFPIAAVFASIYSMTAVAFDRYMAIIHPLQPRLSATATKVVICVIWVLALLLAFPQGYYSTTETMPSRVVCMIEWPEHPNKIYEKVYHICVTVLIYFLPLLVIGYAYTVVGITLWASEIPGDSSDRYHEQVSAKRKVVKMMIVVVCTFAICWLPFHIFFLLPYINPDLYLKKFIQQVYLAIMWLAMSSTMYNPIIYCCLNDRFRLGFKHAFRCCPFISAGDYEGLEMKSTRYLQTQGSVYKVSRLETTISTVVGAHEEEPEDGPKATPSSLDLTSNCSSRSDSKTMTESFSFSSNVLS
readoutName: log10 of IC50 (log10 of the value in nM)

molecule: COc1ccccc1C(CNC(=O)Cc1cccc(OC(C)C)c1)N1CCN(C2CCCCC2)CC1 (stereo unspecified)
log10 of IC50: 2.11
--
molecule: C[C@H](NC(=O)[C@@H](Cc1c[nH]c2ccccc12)NC(=O)OCc1cc2ccccc2o1)c1ccccc1
log10 of IC50: -0.14
--
molecule: C[C@@H](O[C@@H]1CN(C(=O)N2CCn3c(nnc3C(F)(F)F)C2)C[C@H]1c1ccc(F)cc1)c1cc(C(F)(F)F)cc(C(F)(F)F)c1
log10 of IC50: -0.33
--
molecule: CCN(CC)C1CCC(COCc2cc(C(F)(F)F)cc(C(F)(F)F)c2)(c2ccccc2)CC1 (mixture of isomers)
log10 of IC50: 1.58
--
molecule: Cc1cc(C)cc(COC(=O)[C@H](Cc2c[nH]c3ccccc23)NC(=O)c2ccccc2)c1
log10 of IC50: 1.34
--
molecule: NC(=O)CN[C@H]1CC[C@H](OCc2cc(C(F)(F)F)cc(C(F)(F)F)c2)[C@@H]1c1ccccc1 (racemic)
log10 of IC50: 0.92
--
molecule: FC(F)(F)c1cc(COCC2(c3ccccc3)CCC(NC3CC3)C2)cc(C(F)(F)F)c1 (mixture of isomers)
log10 of IC50: 1.20
--
molecule: N[C@H]1CC[C@H](OCc2cc(C(F)(F)F)cc(C(F)(F)F)c2)[C@@H]1c1ccccc1 (racemic)
log10 of IC50: 0.90
--
molecule: CN(CC(N)=O)[C@H](COCc1cc(C(F)(F)F)cc(C(F)(F)F)c1)c1ccccc1
log10 of IC50: 0.76
--
molecule: CN(C)C1CCC(COCc2cc(C(F)(F)F)cc(C(F)(F)F)c2)(c2ccccc2)CC1 (mixture of isomers)
log10 of IC50: 1.68
--
molecule: FC(F)(F)c1cc(CO[C@H]2CC[C@@H](CN3CCOCC3)[C@@H]2c2ccccc2)cc(C(F)(F)F)c1 (racemic)
log10 of IC50: 0.91
--
molecule: COc1cc(C)cc(COC[C@@H](N)c2ccccc2)c1
log10 of IC50: 2.13
--
molecule: FC(F)(F)c1cc(COCC2(c3ccccc3)CCC(N3CCCCC3)C2)cc(C(F)(F)F)c1 (mixture of isomers)
log10 of IC50: 0.67
--
molecule: C[C@@H](O[C@@H]1CN(C(=O)NC(C)(C)C)C[C@H]1c1ccc(F)cc1)c1cc(C(F)(F)F)cc(C(F)(F)F)c1
log10 of IC50: -0.85
--
molecule: CC(C)C(=O)N1C[C@@H](O[C@H](C)c2cc(C(F)(F)F)cc(C(F)(F)F)c2)[C@H](c2ccc(F)cc2)C1
log10 of IC50: -0.82
--
molecule: FC(F)(F)c1cc(COCC2(c3ccccc3)CCC(NC3CC3)CC2)cc(C(F)(F)F)c1 (mixture of isomers)
log10 of IC50: 1.87
--
molecule: CC(C)NC(=O)N1C[C@@H](O[C@H](C)c2cc(C(F)(F)F)cc(C(F)(F)F)c2)[C@H](c2ccc(F)cc2)C1
log10 of IC50: -1.22
--
molecule: O=C(NCc1cc(C(F)(F)F)cc(C(F)(F)F)c1)[C@@H](CCN1CCC(c2ccccc2)CC1)c1ccc(F)cc1
log10 of IC50: 1.38
--
molecule: CCN1CC[C@H](NCc2cc(OC(F)(F)F)ccc2OC)[C@H](c2ccccc2)C1 (racemic)
log10 of IC50: 0.68
--
molecule: C[C@@H](O[C@@H]1CN(C(=O)N2CCOCC2)C[C@H]1c1ccccc1)c1cc(C(F)(F)F)cc(C(F)(F)F)c1
log10 of IC50: -0.80
--
molecule: CNC1CCC(COCc2cc(C(F)(F)F)cc(C(F)(F)F)c2)(c2ccccc2)CC1 (mixture of isomers)
log10 of IC50: 1.20
--
molecule: COc1ccccc1CC(=N)N1CC2C(=O)CSC(c3ccccc3)(c3ccccc3)C2C1 (stereo unspecified)
log10 of IC50: 0.95
--
molecule: NC(=O)N[C@H]1CC[C@H](OCc2cc(C(F)(F)F)cc(C(F)(F)F)c2)[C@@H]1c1ccccc1 (racemic)
log10 of IC50: 0.99
--
molecule: COC(=O)N[C@@H](Cc1c[nH]c2ccccc12)C(=O)OCc1cc(C)cc(C)c1
log10 of IC50: 1.94
--
molecule: O[C@H]1COC[C@H]1N1CC[C@@H](c2cc3nc(Nc4cnn([C@@H]5CC5(F)F)c4Cl)ncc3cc2Cl)[C@H](F)C1
log10 of IC50: 3.76
--
molecule: C[C@@H](O[C@@H]1CN(C(=O)N(C)C)C[C@H]1c1ccc(F)cc1)c1cc(C(F)(F)F)cc(C(F)(F)F)c1
log10 of IC50: -0.42
--
molecule: CN[C@@H]1CC[C@H](OCc2cc(C(F)(F)F)cc(C(F)(F)F)c2)[C@H]1c1ccccc1 (racemic)
log10 of IC50: -0.08
--
molecule: CC1CC(N2C[C@@H](O[C@H](C)c3cc(C(F)(F)F)cc(C(F)(F)F)c3)[C@H](c3ccc(F)cc3)C2)=CC1=O (single isomer, unassigned; diastereomer A)
log10 of IC50: -0.80
--
molecule: O=C(Cc1cc(C(F)(F)F)cc(C(F)(F)F)c1)NCC(c1ccccc1Br)N1CCC(N2CCCCC2)CC1 (stereo unspecified)
log10 of IC50: -0.06
--
molecule: O=C(Cc1cc(C(F)(F)F)cc(C(F)(F)F)c1)NCC(c1cccc2c1OCO2)N1CCN(C2CCCCC2)CC1 (stereo unspecified)
log10 of IC50: 0.20
--
molecule: CCNC(=O)N1CC[C@H](NCc2cc(-n3nnnc3C(F)(F)F)ccc2OC2CC2)[C@H](c2ccccc2)C1 (racemic)
log10 of IC50: -1.36
